- targetUnderTest: T1, human LILRB5 (human, UniProt O75023 24-590)
- T1 construct: Over-expressed on CHO-s cells; also called hLILRB5
- T1 sequence (O75023 24-590 P542R limits assumed): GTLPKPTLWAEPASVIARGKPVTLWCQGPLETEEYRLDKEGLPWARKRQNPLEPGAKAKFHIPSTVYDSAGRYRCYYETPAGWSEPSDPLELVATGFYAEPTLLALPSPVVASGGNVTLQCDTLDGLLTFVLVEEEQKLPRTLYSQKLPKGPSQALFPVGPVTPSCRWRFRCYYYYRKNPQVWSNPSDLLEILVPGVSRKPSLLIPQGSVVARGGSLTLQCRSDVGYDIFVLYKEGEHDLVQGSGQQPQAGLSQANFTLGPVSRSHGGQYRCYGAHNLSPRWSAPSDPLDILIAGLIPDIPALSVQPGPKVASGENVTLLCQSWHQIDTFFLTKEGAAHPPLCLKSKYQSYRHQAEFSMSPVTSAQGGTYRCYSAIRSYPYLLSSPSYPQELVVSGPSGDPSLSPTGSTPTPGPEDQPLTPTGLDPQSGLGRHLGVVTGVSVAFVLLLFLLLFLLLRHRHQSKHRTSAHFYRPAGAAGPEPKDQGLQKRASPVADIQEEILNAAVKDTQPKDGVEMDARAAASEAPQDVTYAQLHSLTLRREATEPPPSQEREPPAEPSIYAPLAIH
- testDetails: flow cytometry, LILRB5 CHOs
reportedEndpoint: binding result

>  <binder>
J-04 (antibody, human IgG4 S228P, kappa, V domains shown, Human IgG4 chimera of murine origin) VH: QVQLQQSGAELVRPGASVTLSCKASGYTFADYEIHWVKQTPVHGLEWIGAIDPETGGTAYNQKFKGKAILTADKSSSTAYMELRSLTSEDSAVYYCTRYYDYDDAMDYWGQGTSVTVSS VL: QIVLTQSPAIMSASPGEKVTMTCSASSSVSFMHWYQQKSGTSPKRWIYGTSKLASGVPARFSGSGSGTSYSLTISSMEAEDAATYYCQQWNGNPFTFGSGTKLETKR

>  <reportedEndpoint>
binding result

>  <dataValue>
no binding

$$$$
>  <binder>
J-03 (antibody, human IgG4 S228P, kappa, V domains shown, Human IgG4 chimera of murine origin) VH: QVQLQQSGAELVRPGASVTLSCKASGYKFTDYEMHWVKQTPVHGLEWIGAIDPETNGTAYNKKFKGKAILTADKSSSTAYMELRSLTSEDSAVYYCTRGDYDFSAWFAYWGQGTLVTVSA VL: DIVLTQSPASLAVSLGQRATISCRASESVDNYDISFMHWYQQKPGQPPKLLIYRASNLESGIPARFSGSGSRTDFTLTINPVETDDVATYYCQQSNKDPRTFGGGTKLEIKR

>  <reportedEndpoint>
binding result

>  <dataValue>
no binding

$$$$
